Target: SMARCA4 (Homo sapiens (Human))
Assay: SMARCA4 HiBiT degradation assay in HeLa cells
Assay type: cell-based
Conditions: HeLa, 18 hours, read-out: Dmax % (SM4-HeLa) maximum SMARCA4 degradation within the concentrations tested
PROPERTY: Dmax

Consider the reported Dmax for these compounds:
Cc1ncsc1-c1ccc([C@H](C)NC(=O)[C@@H]2C[C@@H](O)CN2C(=O)[C@@H](c2cc(OCCN3CC(O)C(N4CCN5c6cc(-c7ccccc7O)nnc6NC[C@H]5C4)C3)no2)C(C)C)cc1 (stereo partly shown); > 75%
Cc1ncsc1-c1ccc([C@H](C)NC(=O)[C@@H]2C[C@@H](O)CN2C(=O)[C@@H](c2cc(OCCN3CCCC(CN4CCN5c6cc(-c7ccccc7O)nnc6NC[C@H]5C4)C3)no2)C(C)C)cc1 (single isomer, unassigned); > 75%
Cc1ncsc1-c1ccc([C@H](C)NC(=O)[C@@H]2C[C@@H](O)CN2C(=O)[C@@H](c2cc(OCCN3CC4CC(N5CCN6c7cc(-c8ccccc8O)nnc7NC[C@H]6C5)CC4C3)no2)C(C)C)cc1 (stereo partly shown); > 75%

Next compound, please.
Lab note: measured Dmax of Cc1ncsc1-c1ccc([C@H](C)NC(=O)[C@@H]2C[C@@H](O)CN2C(=O)[C@@H](c2cc(O[C@H](C)C(=O)N3CCC(N4CCN5c6cc(-c7ccccc7O)nnc6NC[C@H]5C4)CC3)no2)C(C)C)cc1 was 50 to 75%

* * *

Molecular target: SMARCA4 (Homo sapiens (Human), UniProt P51532)
Sequence (P51532 whole entry): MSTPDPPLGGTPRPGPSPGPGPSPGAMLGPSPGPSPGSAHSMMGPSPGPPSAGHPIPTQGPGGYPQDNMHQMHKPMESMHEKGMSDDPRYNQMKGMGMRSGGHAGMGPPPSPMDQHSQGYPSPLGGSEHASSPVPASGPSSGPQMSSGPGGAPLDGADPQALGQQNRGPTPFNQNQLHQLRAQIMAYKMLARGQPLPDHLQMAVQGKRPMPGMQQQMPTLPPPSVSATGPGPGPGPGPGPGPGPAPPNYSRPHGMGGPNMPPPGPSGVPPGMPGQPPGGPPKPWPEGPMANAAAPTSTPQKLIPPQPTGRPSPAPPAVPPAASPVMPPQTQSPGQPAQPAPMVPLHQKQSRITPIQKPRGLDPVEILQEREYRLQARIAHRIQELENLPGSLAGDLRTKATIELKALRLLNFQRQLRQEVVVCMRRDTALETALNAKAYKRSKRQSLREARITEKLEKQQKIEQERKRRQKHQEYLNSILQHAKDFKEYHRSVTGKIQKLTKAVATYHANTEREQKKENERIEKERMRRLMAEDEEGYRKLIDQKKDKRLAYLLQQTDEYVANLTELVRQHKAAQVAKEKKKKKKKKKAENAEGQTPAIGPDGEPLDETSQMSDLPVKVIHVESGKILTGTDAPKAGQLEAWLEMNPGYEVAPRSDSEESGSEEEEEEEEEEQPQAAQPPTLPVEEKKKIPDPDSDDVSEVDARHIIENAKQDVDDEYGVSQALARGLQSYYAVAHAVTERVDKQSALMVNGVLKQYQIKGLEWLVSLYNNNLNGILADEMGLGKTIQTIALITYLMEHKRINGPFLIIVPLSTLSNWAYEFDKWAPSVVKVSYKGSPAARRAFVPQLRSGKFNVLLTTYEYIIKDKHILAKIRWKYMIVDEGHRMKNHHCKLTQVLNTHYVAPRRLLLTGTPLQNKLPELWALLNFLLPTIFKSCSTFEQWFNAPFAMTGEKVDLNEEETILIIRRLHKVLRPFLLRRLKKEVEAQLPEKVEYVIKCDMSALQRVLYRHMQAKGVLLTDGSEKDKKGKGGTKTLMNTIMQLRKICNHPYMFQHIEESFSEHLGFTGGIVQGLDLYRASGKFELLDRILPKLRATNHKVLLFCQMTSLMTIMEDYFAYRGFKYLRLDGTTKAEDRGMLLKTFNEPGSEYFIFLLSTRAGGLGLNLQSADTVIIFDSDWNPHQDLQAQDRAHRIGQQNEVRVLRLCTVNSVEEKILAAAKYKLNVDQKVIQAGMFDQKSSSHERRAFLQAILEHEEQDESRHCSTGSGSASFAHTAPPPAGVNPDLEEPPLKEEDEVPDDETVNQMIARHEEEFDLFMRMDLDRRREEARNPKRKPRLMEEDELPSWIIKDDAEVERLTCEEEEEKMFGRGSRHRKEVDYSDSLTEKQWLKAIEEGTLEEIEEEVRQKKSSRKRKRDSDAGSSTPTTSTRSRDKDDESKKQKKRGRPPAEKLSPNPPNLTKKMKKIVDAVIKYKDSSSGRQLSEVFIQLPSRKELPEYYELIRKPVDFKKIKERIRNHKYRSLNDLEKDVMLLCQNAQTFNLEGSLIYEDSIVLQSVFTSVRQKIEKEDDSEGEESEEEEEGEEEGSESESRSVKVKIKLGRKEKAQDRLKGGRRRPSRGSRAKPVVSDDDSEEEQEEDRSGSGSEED
Experiment: SMARCA4 HiBiT degradation assay in HeLa cells
Format: cell-based
Settings: 18 hours, read-out: DC50 (SM4-HeLa) SMARCA4 degradation potency
Each entry below carries its recorded DC50.

Consider the reported DC50 for these molecules:
Cc1ncsc1-c1ccc([C@H](C)NC(=O)[C@@H]2C[C@@H](O)CN2C(=O)[C@@H](c2cc(CCCN3CCCC(N4CCN5c6cc(-c7ccccc7O)nnc6NC[C@H]5C4)C3)no2)C(C)C)cc1 (stereo partly drawn); < 100 nM
Cc1ncsc1-c1ccc([C@H](C)NC(=O)[C@@H]2C[C@@H](O)CN2C(=O)[C@@H](c2cc(OCCN3CC4CC(N5CCN6c7cc(-c8ccccc8O)nnc7NC[C@H]6C5)CC4C3)no2)C(C)C)cc1 (stereo partly drawn); < 100 nM

Next molecule, please.
Lab note: measured DC50 of Cc1ncsc1-c1ccc([C@H](C)NC(=O)[C@@H]2C[C@@H](O)CN2C(=O)[C@@H](c2cc(OCCN3CCC(N4CCN5c6cc(-c7ccccc7O)nnc6NC(C)C5C4)CC3)no2)C(C)C)cc1 (stereo partly drawn) was < 100 nM

* * *

Each entry below carries its recorded DC50.
Molecular target: SMARCA4 (Homo sapiens (Human))
Assay: SMARCA4 HiBiT degradation assay in HeLa cells
Format: cell-based
Settings: 18 hours, read-out: DC50 (SM4-HeLa) SMARCA4 degradation potency

Consider the reported DC50 for these molecules:
Cc1ncsc1-c1ccc([C@H](C)NC(=O)[C@@H]2C[C@@H](O)CN2C(=O)[C@@H](c2cc(O[C@H](C)CN3CCC(N4CCN5c6cc(-c7ccccc7O)nnc6NC[C@H]5C4)C3)no2)C(C)C)cc1 (single isomer, unassigned) [Example 51]; < 0.1 µM
CCC(CN1CCC(N2CCN3c4cc(-c5ccccc5O)nnc4NC[C@H]3C2)C1)Oc1cc(C(C(=O)N2C[C@H](O)C[C@H]2C(=O)N[C@@H](C)c2ccc(-c3scnc3C)cc2)C(C)C)on1 (stereo partly drawn) [Example 61]; < 0.1 µM

Next molecule, please.
Lab note: measured DC50 of Cc1ncsc1-c1ccc([C@H](C)NC(=O)[C@@H]2C[C@@H](O)CN2C(=O)[C@@H](c2cc(OCCN3CCC(N4CCC(N5CCN6c7cc(-c8ccccc8O)nnc7NC[C@H]6C5)CC4)C3)no2)C(C)C)cc1 (stereo partly drawn) [Example 26] was 0.1 to 1 µM

These data points were gathered from patent US20240018158A1.
